The reported numbers originate from PubChem BioAssay (Tox21).

Experiment: qHTS assay to identify small molecule agonists of the vitamin D receptor (VDR) signaling pathway - cell viability counter screen (AID 743224); also: nearly all actives have a fitted effect of over 50% in size
Details: VDR-bla HEK293T viability, CellTiter-Glo luminescence, 16 h; series mostly up to 62.6 µM
Records with an inconclusive call do not appear. Active and inactive are the calls of the source. Calls follow the shape of the dose curve; as a rule, active = well fitted cell-killing curve with a large enough effect in the repeat runs; inconclusive = weak or mixed curves, or effect the other way; inactive = no such curve, though single readings can be large or run the other way.
Outcome codes: active, inactive

INSERT INTO assay_data (compound, category_label) VALUES
  ('C[C@H]1C[C@H](O)c2ccsc2S1(=O)=O', 'inactive'),
  ('O=C1c2ccccc2C(=O)C1(O)O', 'inactive'),
  ('NCCNCCO', 'inactive'),
  ('CCCCN(CCCC)C(C(N)=O)c1ccc(OC)cc1 (configuration not stated)', 'inactive'),
  ('CCOC(=O)/C=C/C(=O)OCC', 'inactive'),
  ('CCCCCCCC/C=C\CCCCCCCCCCCC(=O)O', 'inactive'),
  ('Nc1cccc2c1CN(C1CCC(=O)NC1=O)C2=O (configuration not stated)', 'inactive'),
  ('CC(C)(C)C(=O)C(=O)O', 'inactive'),
  ('CC(=O)[C@H]1[C@H](C#N)C[C@H]2[C@@H]3CC=C4C[C@@H](O)CC[C@]4(C)[C@H]3CC[C@@]21C', 'inactive'),
  ('O=c1[nH]c2ccc(Cl)cc2o1', 'inactive'),
  ('O=C(O)CCCCCCCCCCCBr', 'inactive'),
  ('CN1C[C@H](C(=O)N[C@]2(C)O[C@@]3(O)[C@@H]4CCCN4C(=O)[C@H](Cc4ccccc4)N3C2=O)C[C@@H]2c3cccc4[nH]cc(c34)C[C@H]21', 'active'),
  ('Cc1cscn1', 'inactive'),
  ('CCC(OCCCOC)OC(C)=O (configuration not stated)', 'inactive'),
  ('O=[N+]([O-])c1ccc(Nc2ccc(Nc3ccccc3)c(S(=O)(=O)O)c2)c([N+](=O)[O-])c1', 'inactive'),
  ('Cc1ccc2c(Br)cc(Br)c(O)c2n1', 'inactive'),
  ('C=C(C)C(=O)OCCCCCCCCCCCCC', 'inactive'),
  ('Cc1ccccc1N=C(N)Nc1ccccc1C', 'inactive'),
  ('CCC1CO1 (configuration not stated)', 'inactive'),
  ('CC(=O)N/N=C/c1ccc([N+](=O)[O-])o1', 'inactive'),
  ('O=[N+]([O-])c1ccc(O/N=C/c2cc(Br)c(O)c(Br)c2)c([N+](=O)[O-])c1', 'inactive'),
  ('CC=C(Cl)Cl', 'inactive'),
  ('Nc1nnc(-c2ccc([N+](=O)[O-])o2)o1', 'inactive'),
  ('CCOc1ccccc1O[C@H](c1ccccc1)[C@H]1CNCCO1', 'inactive'),
  ('COC(=O)c1nc(Cl)c(Cl)nc1N', 'active'),
  ('CCC=CC#N', 'inactive'),
  ('Cc1cc(O)c(C)c(C)c1O', 'active'),
  ('CO/N=C(/C(=O)N[C@@H]1C(=O)N2C(C(=O)O)=C(COC(N)=O)CS[C@H]12)c1ccco1', 'inactive'),
  ('CS(=O)(=O)c1ccc(-c2cn3ccccc3n2)cc1', 'active'),
  ('O=C(/C=C/c1ccccc1)OCCc1ccccc1', 'inactive'),
  ('CCOC(=O)c1ccc(I)cc1', 'inactive'),
  ('O=C(O)c1cccc(-c2noc(-c3ccccc3F)n2)c1', 'inactive'),
  ('CCc1ccccc1', 'inactive'),
  ('CCCCC(CC)CN (configuration not stated)', 'inactive'),
  ('COC(=O)CCS', 'inactive'),
  ('COc1cc(C(=O)NCCCCCC(=O)O)cc(OC)c1OC', 'inactive'),
  ('CN1C(=O)OC(C)(C)C1=O', 'inactive'),
  ('CC(=O)c1cc2ccccc2s1', 'inactive'),
  ('COc1ncnc(NS(=O)(=O)c2ccc(N)cc2)c1OC', 'inactive'),
  ('OC1(c2ccccc2)CCNCC1', 'inactive'),
  ('CC1=Nc2ccc3ccccc3c2C1(C)C', 'inactive'),
  ('CC(=O)Nc1cc(S(=O)(=O)O)cc2cc(S(=O)(=O)O)c(N=Nc3ccccc3)c(O)c12', 'inactive'),
  ('CCCCCCCC/C=C\CCCCCCCCO', 'inactive'),
  ('Cc1cc(=O)c2c(O)c3c(O)cc(=O)c4c3c3c(cc(O)c1c23)C(C)(C)C=4O', 'active'),
  ('O=c1[nH]ncc2ccccc12', 'inactive'),
  ('O=c1c(O)c(-c2ccc(O)cc2)oc2cc(O)cc(O)c12', 'inactive'),
  ('C/C=C(/C(=C/C)c1ccc(O)cc1)c1ccc(O)cc1', 'inactive');
